Hello, the source for this data is the supplement of paper PMC10567573, in case you need it.

B1: NEK8 (parent)
chain: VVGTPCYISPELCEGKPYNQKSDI

Variants of: B1
Experiment: protein stability index of a GFP-peptide fusion (GPS, HEK-293T) (PSI 1-6); higher = more stable;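 also: lentivirally expressed fusions sorted by FACS into six bins by GFP to DsRed ratio, PSI derived from sequencing read proportions per bin multiplied by bin number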
Details: c terminus: a fixed tail appended
VALUE KIND: protein stability index

Before answering, review these 3 worked examples.
{"SEQUENCE ENTRY": "VVGTPCYISPELCEGKPYNQKSDV [I24V]", "MEAS VALUE": 3.27}
{"SEQUENCE ENTRY": "VVGTPCAISPELCEGKPYNQKSDI [Y7A]", "MEAS VALUE": 3.94}
{"SEQUENCE ENTRY": "VVGTPCYISAELCEGKPYNQKSDI [P10A]", "MEAS VALUE": 2.96}

Entry TVGTPCYISPELCEGKPYNQKSDI [V1T] — recorded protein stability index = 3.76

Entry VVGTPCYISYELCEGKPYNQKSDI [P10Y] — recorded protein stability index = 1.91

Entry VVGTPCYISPVLCEGKPYNQKSDI [E11V] — recorded protein stability index = 1.59

Entry VVGCPCYISPELCEGKPYNQKSDI [T4C] — recorded protein stability index = 2.85

Entry VVGTPCYISPELCKGKPYNQKSDI [E14K] — recorded protein stability index = 2.6

Entry VVGTPCYISPELCEGKPFNQKSDI [Y18F] — recorded protein stability index = 2.67

Entry VVGTPCYISPELCEGKPYNKKSDI [Q20K] — recorded protein stability index = 3.15

Entry VVGTPCYISPELCEGKPYNQKSCI [D23C] — recorded protein stability index = 2.93

Entry VVGTDCYISPELCEGKPYNQKSDI [P5D] — recorded protein stability index = 2.98

Entry VVGTPCYISPELCEGKPYNQFSDI [K21F] — recorded protein stability index = 1.75
